# credit: ChEMBL document CHEMBL4513216

# assay_name: Toxicity liver stage against HepG2, at 10uM
# Type: cell-based
# Set-up: test concentration 10 uM, cell line HepG2-A16-CD81EGFP
# measurement_parameters: human, HepG2-A16-CD81EGFP cells; read-out: INHIBITION
metric: cytotoxicity at 10 µM (%)
Give the quantity in %, number only.

Some compounds with recorded cytotoxicity at 10 µM:
compound: CCOc1ccccc1C1CCCN1 (stereo unspecified)
recorded_result: -14.1
//
compound: CC(C)NC(=O)Cn1cc(OCc2ccc(F)cc2)c(=O)cc1CO
recorded_result: 4.74
//
compound: COC(=O)C(c1cc(F)ccc1F)N(C)C(=O)c1cccnc1O (stereo unspecified)
recorded_result: -0.289
//
compound: Cc1cnn(CCC(=O)N2CCCN(c3nc(C)cs3)CC2)c1
recorded_result: -4.05
//
compound: Cc1ncc(-c2ccnc(NCCc3ccc(F)cc3)n2)c(=O)[nH]1
recorded_result: -7.3
//
compound: CC(Cn1cccn1)NC(=O)NCCc1cnn(C)c1 (stereo unspecified)
recorded_result: -0.0611

stdin: I have this compound here, O=C(c1cccs1)N1C[C@H]2CC[C@@]3(N=C(c4ccccc4)NC3=O)[C@H]2C1 , and I need its recorded cytotoxicity at 10 µM.
stdout: -9.84

stdin: Can you check CCc1nnc(CN2CCCCC2Cn2nc(C)nc2C)o1 (stereo unspecified) next?
stdout: -2.4

stdin: Can you check Cc1cc(C2NC(=O)CN2Cc2ccc(Br)cc2)cc(C)c1O (stereo unspecified) next?
stdout: 4.12

stdin: Can you check Cc1nc(C)c(C)c(NCCSc2ccccn2)n1 next?
stdout: -4.23

stdin: Can you check CCc1noc(CN(Cc2cccs2)C2CC2)n1 next?
stdout: 1.44

stdin: Can you check CS(=O)(=O)NC[C@@H]1OC[C@H]2CN(Cc3ccccc3)CC[C@H]21 next?
stdout: 4.82

stdin: Can you check CN(CCCNC(=O)C1CCc2cn[nH]c2C1)c1ccc(F)cc1 (stereo unspecified) next?
stdout: 14.2

stdin: Can you check CN(C)c1ccccc1C(=O)N1CCCC(c2cccc(C(=O)O)c2)C1 (stereo unspecified) next?
stdout: -6.11

stdin: Can you check O=C(c1cnc(Nc2ccccc2)nc1)N1CCS(=O)(=O)CC1 next?
stdout: -1.01

stdin: Can you check COCC(=O)N[C@H](C)c1c(-c2ccc(Cl)cc2)noc1C(=O)O next?
stdout: 1.05

----------
Listing of recorded cytotoxicity at 10 µM by entry.
# assay_name: Toxicity liver stage against HepG2, at 10uM
# Assay type: cell-based
# Set-up: test concentration 10 uM, cell line HepG2-A16-CD81EGFP
# measurement_parameters: human, HepG2-A16-CD81EGFP cells; read-out: INHIBITION
Give the quantity in %, number only.

Some compounds with recorded cytotoxicity at 10 µM:
compound: CNC(=O)[C@@H]1COC[C@H]2CN(C(=O)c3cccc(OC)c3)C[C@H]21
metric: cytotoxicity at 10 µM
value_units: %
recorded_result: 12.2

compound: O=c1cccnn1CC1CN(CC2CCCC2)Cc2nccn2C1 (stereo not drawn)
metric: cytotoxicity at 10 µM
value_units: %
recorded_result: 5.03

compound: Cc1ccc(CN2CC[C@@]3(O)CCN(S(=O)(=O)N(C)C)C[C@H]3C2)cc1C
metric: cytotoxicity at 10 µM
value_units: %
recorded_result: -1.42

compound: CCOc1ccccc1CCNC(=O)NCC(O)c1ccsc1 (stereo not drawn)
metric: cytotoxicity at 10 µM
value_units: %
recorded_result: -2.23

compound: CC(C)(C)c1nc(CC(=O)Nc2cnccc2O)cs1
metric: cytotoxicity at 10 µM
value_units: %
recorded_result: 9.09

stdin: I have this compound here, c1cncc(OC[C@]23COC[C@H]2CN(C2CCOCC2)C3)c1 , and I need its recorded cytotoxicity at 10 µM.
stdout: 8.61

stdin: Can you check CNC(=O)c1nc2c(s1)CCN(C(=O)c1ccccc1)CC2 next?
stdout: 11.1

stdin: Can you check Cc1ccc(CNC(C)c2ccc(N3CCN(C)CC3)c(F)c2)o1 (stereo not drawn) next?
stdout: -2.76

----------
# assay_name: Toxicity liver stage against HepG2, at 10uM
# Type: cell-based
# Parameters: test concentration 10 uM, cell line HepG2-A16-CD81EGFP
# measurement_parameters: human, HepG2-A16-CD81EGFP cells; read-out: INHIBITION
Listing of recorded cytotoxicity at 10 µM by entry.
Give the quantity in %, number only.

compound: COc1ccccc1OCC(=O)Nc1ncccc1C
cytotoxicity at 10 µM / %: 0.464

compound: COCC(=O)NCC1Cn2nnc(-c3ccncc3)c2CO1 (stereo unspecified)
cytotoxicity at 10 µM / %: 8.22

stdin: I have this compound here, O=C(NC[C@]12COC[C@H]1CN(Cc1ccncc1)C2)c1ccno1 , and I need its recorded cytotoxicity at 10 µM.
stdout: -72.1

stdin: Can you check CCOCCN1CCN(CCCc2nnnn2-c2ccccc2)CC1 next?
stdout: 6.45

stdin: Can you check Cc1cc(C(=O)NC(C)Cc2cccc(Cl)c2)n(C)n1 (stereo unspecified) next?
stdout: 10.9

stdin: Can you check CCOc1ccc(NC(=O)NCc2cccnc2OCC)cc1 next?
stdout: -8.67

stdin: Can you check CCc1ccsc1C(=O)NCCn1nc2ccccn2c1=O next?
stdout: -12.2

----------
Listing of recorded cytotoxicity at 10 µM by entry.
# assay_name: Toxicity liver stage against HepG2, at 10uM
# Type: cell-based
# Set-up: test concentration 10 uM, cell line HepG2-A16-CD81EGFP
# measurement_parameters: human, HepG2-A16-CD81EGFP cells; read-out: INHIBITION
Give the quantity in %, number only.

Some molecules with recorded cytotoxicity at 10 µM:
molecule: COCCN1CCN(CCS(C)(=O)=O)CC1C (stereo unspecified)
cytotoxicity at 10 µM (%): -1.22
//
molecule: CS(=O)(=O)N1CC2(CCN(C3CCCCC3)CC2)Cc2ccccc21
cytotoxicity at 10 µM (%): 4.92

stdin: I have this molecule here, N#Cc1cn(C2CC2)c(=O)n(Cc2noc(-c3ccsc3)n2)c1=O , and I need its recorded cytotoxicity at 10 µM.
stdout: 0.836

stdin: Can you check CS(=O)(=O)N[C@@H]1CCO[C@]2(CCN(CC3CCOCC3)C2)C1 next?
stdout: -132

stdin: Can you check CSc1ccc(CNCCS(=O)(=O)N2CCOCC2)cc1 next?
stdout: 4.83

stdin: Can you check O=C(c1ccc[nH]1)N1C[C@H]2CN(Cc3cccc(F)c3)C(=O)[C@H]2C1 next?
stdout: 3.99

----------
# assay_name: Toxicity liver stage against HepG2, at 10uM
# Assay type: cell-based
# Parameters: test concentration 10 uM, cell line HepG2-A16-CD81EGFP
# measurement_parameters: human, HepG2-A16-CD81EGFP cells; read-out: INHIBITION
Listing of recorded cytotoxicity at 10 µM by entry.
Give the quantity in %, number only.

Some molecules with recorded cytotoxicity at 10 µM:
molecule: CC(C(=O)N1CCN(Cc2ccc(C#N)cc2)CC1)n1ccnc1 (stereo unspecified)
recorded_result: -9.71

molecule: CC(NC(=O)C(C)(C)C)c1cc(O)nc(-c2cccnc2)n1 (stereo unspecified)
recorded_result: 6.5

molecule: O=c1c2cccc(F)c2ncn1CCN1CCOCC1
recorded_result: 2.53

molecule: CN(C)C(=O)CN1CCC2(CCN(C(=O)N(C)C)CC2)C1=O
recorded_result: 0.611

stdin: I have this molecule here, Cc1cccc(-c2nc(C)nn2CC(=O)NC(C)C2CC2)c1 (stereo unspecified) , and I need its recorded cytotoxicity at 10 µM.
stdout: -0.502

stdin: Can you check CCN(C)S(=O)(=O)c1ccc(Cl)cc1C#N next?
stdout: -36.9

----------
# assay_name: Toxicity liver stage against HepG2, at 10uM
# Type: cell-based
# Design: test concentration 10 uM, cell line HepG2-A16-CD81EGFP
# measurement_parameters: human, HepG2-A16-CD81EGFP cells; read-out: INHIBITION
Listing of recorded cytotoxicity at 10 µM by entry.
Give the quantity in %, number only.

stdin: I have this compound here, CCS(=O)(=O)N(C)CC(=O)Nc1ccc(Br)cn1 , and I need its recorded cytotoxicity at 10 µM.
stdout: -0.0481

----------
# assay_name: Toxicity liver stage against HepG2, at 10uM
# Assay type: cell-based
# Set-up: test concentration 10 uM, cell line HepG2-A16-CD81EGFP
# measurement_parameters: human, HepG2-A16-CD81EGFP cells; read-out: INHIBITION
Listing of recorded cytotoxicity at 10 µM by entry.
Give the quantity in %, number only.

Some molecules with recorded cytotoxicity at 10 µM:
molecule: CS(=O)(=O)N1CCC(C(=O)N2CCC(Cn3cccn3)CC2)CC1
cytotoxicity at 10 µM / %: -10.2
//
molecule: N#Cc1cccc(S(=O)(=O)NC2CCN(CC(F)(F)F)C2)c1 (stereo not drawn)
cytotoxicity at 10 µM / %: -1.03
//
molecule: O=C(NCC1(c2ccc(F)cc2)CCCC1)N1CCOC(CO)C1 (stereo not drawn)
cytotoxicity at 10 µM / %: 0.323

Then this molecule:
stdin: I have this molecule here, Fc1ccccc1-c1noc2c1CN(CCN1CCOCC1)CC2 , and I need its recorded cytotoxicity at 10 µM.
stdout: 0.0119
